System: PC-12
test-description: Neuroprotective activity against etoposide-induced apoptosis in rat PC12 cells assessed as increase in Bcl2/Bax ratio at 3 uM pretreated for 4 hrs followed by etoposide challenge measured after 48 hrs by Western blot method
Type: functional, cell-based
Calls of active or inactive are those of the source. The rule behind the calls is not given here.
Classes used: active, inactive

{"smiles-data": "CCOC(=O)Nc1ccc(NCc2ccc(F)cc2)nc1N", "label-value": "inactive"}
{"smiles-data": "Nc1nc(NCc2ccc(F)cc2)ccc1NC(=O)OCc1ccccc1", "label-value": "active"}
{"smiles-data": "CCOC(=O)Nc1ccc(NCc2ccc(Cl)cc2)nc1N", "label-value": "inactive"}
{"smiles-data": "CCOC(=O)Nc1ccc(NCc2ccc(C(F)(F)F)cc2)nc1N", "label-value": "inactive"}
{"smiles-data": "CCOC(=O)Nc1ccc(NCc2ccc(F)cc2)cc1N", "label-value": "inactive"}
{"smiles-data": "CCOC(=O)Nc1ccc(NCc2ccc(SC(F)(F)F)cc2)nc1N", "label-value": "inactive"}
